readout type: melting point (°C)
Write down the numeric answer in °C and omit the unit.

Cc1ccc(C(=O)N2CCC(CN3CCc4oc5ccccc5c4C3)CC2)cc1 = 140

Then there is this compound:
So what does the record say about melting point for CCCCCCCCNC(=O)C1CC1c1ccc(N2CC(C(=O)O)CC2=O)cc1 (stereo not given) ? 214

###

Reported melting point values follow for various compounds

Solved cases below.
O=C(Nc1cccc2c(CO)c(Br)cnc12)c1c(Cl)cccc1Cl = 246 to 247 °C
COc1ccc(C=NNS(=O)(=O)c2ccc(C)cc2)cc1 = 103 to 105 °C
Nc1c(-c2cc(Cl)ccc2O)c2ccccc2[nH]c1=O = 265 to 268 °C
CCOC(=O)C1CCc2ccc(OC)cc2C1 (stereo unspecified) = 125 to 127 °C
OCc1cn(Cc2ccc(OCc3ccccc3)cc2)nc1-c1ccc(F)cc1 = 112 to 113 °C

So what does the record say about melting point for Cc1nc(Br)c2n1-c1ccc(Cl)cc1C(c1ccccc1F)=NC2 ? 201 to 205 °C

###

Reported melting point values follow for various compounds

Solved cases below.
CC(C)Oc1cc(CCC(=O)NS(=O)(=O)Cc2ccccc2)n(Cc2ccc(Cl)cc2Cl)n1 = 183 to 184 °C
CC(C)NC(=O)C(F)(F)C(F)(F)F = 54 to 56 °C
OC(CCl)CSc1ncc(Cl)cn1 (stereo unspecified) = 99 °C
CC1(C)CC(=O)Nc2ccccc21 = 111 to 112 °C
O=C(O)C=Cc1ccc(-c2ccc(-c3cccs3)s2)s1 = 220 to 225 °C
Cc1ccc(Oc2noc(=O)n2S(=O)(=O)c2c(C)noc2C)c(C)c1 = 135 to 136 °C
CCCCCCC#Cc1ccc(/C=C(/C(=O)O)C(=O)OCC)o1 = 89 to 90 °C
O=C(NCCCBr)c1cnccc1C(F)(F)F = 61 to 63 °C
CNC(=S)C1=CC(CF)(CF)Oc2ccc(C(F)(F)C(F)(F)F)cc21 = 148 to 149 °C
C/C(=C(\C#N)C(=S)/N=C/N(C)C)N1CCCN(c2ccc(Cl)cc2)CC1 = 259 to 264 °C

Then there is this compound:
So what does the record say about melting point for COCc1n[nH]c2c1c(=O)n(-c1ccccc1)c1ncccc21 ? 263 to 265 °C

###

readout type: melting point (°C)
Write down the numeric answer in °C and omit the unit.

Solved cases below.
Cc1[nH]c(=S)n(Nc2cccc([N+](=O)[O-])c2)c1-c1ccccc1 = 214
Cc1ccc(-n2nc(C)cc2-c2ccnc(Cl)c2)cc1 = 100
Cn1ncc2[nH]c3c(Br)cccc3c(=O)c21 = 287

Then there is this molecule:
So what does the record say about melting point for Cc1cc(-c2ccnc(Cl)c2)n(-c2ccc(Cl)cc2)n1 ? 110

###

readout type: melting point

Solved cases below.
Fc1ccc(Oc2ccc(-c3nc4ccccc4[nH]3)cc2)cc1 = 243 to 245 °C
O=C(O)c1ccc(Cc2ccc(-c3ccccc3-c3nnn[nH]3)cc2)c2[nH]c(OCC(F)(F)F)nc12 = 204 to 206 °C
CSc1nc(-c2ccc(S(C)(=O)=O)cc2)n(-c2ccc(C)c(C)c2)c(=O)c1C#N = 245 to 247 °C
CNC(=O)Cn1c(-c2ccc(Cl)cc2)nc2cccnc21 = 238 °C
NS(=O)(=O)c1ccc(CNC(=O)c2ccccc2SSc2ccccc2C(=O)NCc2ccc(S(N)(=O)=O)cc2)cc1 = 267 to 269 °C
OCc1conc1-c1ccc(-c2ccccc2)cc1 = 138 to 139 °C
O=CNCc1ccccc1C(F)(F)C(F)(F)c1ccccc1 = 61 to 75 °C
O=C(O)c1ccc(Cl)c(S)c1 = 209 to 211 °C

So what does the record say about melting point for O=C1c2ccccc2C2(O)Oc3c(ccc4ccccc34)C12O (stereo not given) ? 216 to 218 °C

Please give the result for COc1cccc2c(-c3ccccc3)c([N+](=O)[O-])oc12 too. 160 to 161 °C

###

Reported melting point values follow for various compounds

So what does the record say about melting point for COC(=O)c1c(Cc2ccc(C(=O)CO)cc2)c(=O)c2ccc(C)nc2n1-c1ccccc1 ? 190 to 193 °C

###

Reported melting point values follow for various molecules

Solved cases below.
CCOC(=O)NCCCCc1ccccc1 = 60 to 61 °C
Cc1nnsc1C(=O)c1[nH]c2cc(Cl)ccc2c1CC(=O)O = 215 to 216 °C
Cc1cc(-c2csc(-c3ccc(C(=O)O)cc3)n2)c(C)o1 = 264 to 265 °C

So what does the record say about melting point for COc1cc(NC(=S)Nc2ccccc2)ccn1 ? 138 to 141 °C

Please give the result for O=C1CCC(N2C(=O)c3cccc(OCc4cc5ccccc5s4)c3C2=O)C(=O)N1 (stereo unspecified) too. 247 to 249 °C

Please give the result for CCOC(=O)NCC(=O)NNC1=NC(C)C(c2ccccc2)=NN1 (stereo unspecified) too. 144 to 146 °C

Please give the result for Cc1cc(-c2cccc(Cl)c2)nn2cnnc12 too. 173 to 176 °C

Please give the result for CCCc1c(OCCOc2ccccc2C(=O)OC)ccc(C(C)=O)c1O too. 84 to 87 °C

###

readout type: melting point

Solved cases below.
CCC(C)(CC)C(=O)O[C@H]1CCC=C2C=C[C@H](C)[C@H](CC[C@@H]3C[C@@H](O)CC(=O)O3)[C@H]21 = 61 to 64 °C
CC1(C)C(=O)Nc2cc3[nH]c(N)nc3cc21 = 300 to 305 °C
CC(C)Sc1c(C(N)=O)sc2ccccc12 = 183 to 185 °C
CC(C)N1CCN(c2ccc(C(=O)NC3(C(=O)NCC#N)CCCCC3)cc2)CC1 = 218 to 220 °C
O=C(Oc1cccc2cnccc12)c1cc2ccccc2oc1=O = 190 to 193 °C
CCOC(=O)C1=C(N)NC(c2ccccc2)=CC1c1cccc(Cl)c1 (stereo not given) = 161 °C
CCNc1ccc(-c2cc3ccccc3o2)cc1 = 126 to 128 °C
COC(=O)CC[C@@H](NC(=O)[C@H](CO)NC(=O)OC(C)(C)C)C(=O)OC = 90 to 92 °C
CC(=O)c1cccc2nc(SCCCN3CCCN(CC(=O)Nc4c(C(C)C)cccc4C(C)C)CC3)oc12 = 86 to 88 °C

So what does the record say about melting point for O=C(c1n[nH]c2ccccc12)N1CCCCC1 ? 201 to 203 °C

###

Reported melting point values follow for various molecules

Solved cases below.
O=C(O)c1ccc(NC(c2ccc(Cl)cc2)c2ccc(Cl)cc2)cc1 = 245 to 247 °C
C=CCc1cccnc1C(=O)OC = 116 to 119 °C
CCCc1nc2c(N)nc3cccnc3c2n1CCOCCON=C(C)C = 127 to 128 °C
N#CCCCCCC#Cc1nc(N)c2ncn(C3OC(CO)C(O)C3O)c2n1 (stereo not given) = 99 to 101 °C
Nc1c(C(=O)c2cccc(C(=O)O)c2)[nH]c2cc(Cl)ccc12 = 263 to 270 °C

So what does the record say about melting point for CCOC(=O)c1ccc(-c2ccc(-c3ccc(Cl)cc3)s2)cc1 ? 167 to 168 °C

Please give the result for O=C(COC1CCCCO1)c1ccc(Cl)cc1 (stereo not given) too. 57 °C

Please give the result for O=C(O)c1cccc(C(=O)c2ccc(C3CCCCC3)cc2)c1 too. 180 to 185 °C

Please give the result for O=C(N[C@@H](Cc1ccccc1)C(=O)Nc1nncs1)OCc1ccccc1 too. 78 to 83 °C

Please give the result for Fc1ccc(-c2ccc(N3CCCN(c4ccc(-c5ccc(F)cc5)cn4)CC3)nc2)cc1 too. 268 to 270 °C

Please give the result for CCOC(=O)C1=C(C)NC(C)=C(C(=O)OCC)C1c1ccccc1C=CC(=O)OC too. 138 to 140 °C

Please give the result for Cc1ncncc1NC(=O)Nc1ccc(-n2nc(C(F)(F)F)cc2C2CC2)c(F)c1 too. 198 to 202 °C

Please give the result for N#CCc1ccc([N+](=O)[O-])c(OCc2ccccc2)c1 too. 73 to 85 °C

###

Reported melting point values follow for various compounds

Solved cases below.
CCOC(=O)Cc1oc(-n2cnc3ccccc32)nc1-c1ccc(Cl)cc1 = 152 to 153 °C
CCN(CC)c1cccc2nc3n(c12)CC(F)(F)CN3c1ccc(Cl)cc1Cl = 125 to 127 °C
O=c1ccc(C2(O)CCCCC2)c[nH]1 = 194 to 196 °C
CCS(=O)(=O)Nc1ccc2[nH]cc(C3=CCN(C)CC3)c2c1 = 224 to 226 °C

Then there is this compound:
So what does the record say about melting point for CCOCCNC(=O)C(c1ccccc1)c1ccccc1 ? 83.5 to 86.2 °C

###

Reported melting point values follow for various compounds

Solved cases below.
NC(=O)c1ncc(Cl)cc1N = 152 to 156 °C
O=[N+]([O-])c1cc(I)ccc1Nc1cccc(-c2cncnc2)c1 = 214 to 217 °C
COCc1cn(Cc2ccccc2)c(=O)[nH]c1=O = 134 to 136 °C
CCCCCN(C(=O)Nc1ccc(C(=O)O)cc1)c1ccc2c(c1)C(C)(C)CCC2(C)C = 184 to 186 °C
CN(CC(CCOS(C)(=O)=O)c1ccc(Cl)c(Cl)c1)C(=O)c1ccccc1 (stereo unspecified) = 100 to 102 °C
CCOC(=O)CCC(=O)c1ccc(-c2ccccc2)cc1 = 100 to 101 °C

So what does the record say about melting point for CCON=C(C)c1cccnc1 ? 160 to 162 °C

Please give the result for CN1CCN(CCC#Cc2cc3c(Nc4ccc5[nH]ccc5c4)c(C#N)cnc3s2)CC1 too. 195 to 197 °C

Please give the result for Cc1c(Sc2cccnn2)oc2ccc(Cl)cc12 too. 131 to 134 °C

Please give the result for NC(=O)c1ccc(N2CCN(c3ccncc3)CC2)cc1 too. 327 to 330 °C

Please give the result for CC(O)C(=O)Nc1ccc(C2=NNC(=O)NC2C)cc1 (stereo unspecified) too. 217 to 225 °C
